Reference for the values: ChEMBL document CHEMBL1137668

- protocol details: Cytotoxicity against human PHK after 4 days by Z1 Coulter counting analysis
- condition summary: PHK cells
readout label: CC50 at 96 h

Sample answers from the record:
compound	measurement
C[C@@H](Cn1cnc2c(N)ncnc21)OCP(=O)(O)O	> 176 µM
Nc1ccn(C[C@@H](CO)OCP(=O)(O)O)c(=O)n1.O.O	7 µM

Quick check: CC50 at 96 h of Nc1nc(NC(Cc2ccccc2)C(=O)O)c2ncn(CCOCP(=O)(O)O)c2n1 (racemic) ?
27 µM

Quick check: CC50 at 96 h of Nc1nc(NCCS(=O)(=O)O)c2ncn(CCOCP(=O)(O)O)c2n1 ?
102 µM

Quick check: CC50 at 96 h of C[C@H](O)[C@H](Nc1nc(N)nc2c1ncn2CCOCP(=O)(O)O)C(=O)O ?
> 16 µM

Quick check: CC50 at 96 h of Nc1nc(N(CC(=O)O)CC(=O)O)c2ncn(CCOCP(=O)(O)O)c2n1 ?
> 124 µM

Quick check: CC50 at 96 h of CC(C)CC(Nc1nc(N)nc2c1ncn2CCOCP(=O)(O)O)C(=O)O (racemic) ?
8 µM

###

Measured Ratio CC50/IC50 values are reported for all entries that follow.
- protocol details: Selectivity index, ratio of CC50 for human PHK to EC50 for Camelpox virus CML1 infected in human PHK

Sample answers from the record:
molecule	measurement
Nc1nc(NCCP(=O)(O)O)c2ncn(CCOCP(=O)(O)O)c2n1	<0.5
Nc1cc(OCCOCP(=O)(O)O)nc(N)n1	0.1
Nc1ccn(C[C@H]2COP(=O)(O)CO2)c(=O)n1	2

Quick check: Ratio CC50/IC50 of Nc1ncnc2c1ncn2C[C@H]1COP(=O)(O)CO1 ?
2

Quick check: Ratio CC50/IC50 of Nc1nc(NC(Cc2ccccc2)C(=O)O)c2ncn(CCOCP(=O)(O)O)c2n1 (racemic) ?
<0.2

Quick check: Ratio CC50/IC50 of CC(C)(C)C(=O)OCOP(=O)(COC(CO)Cn1cnc(N)nc1=O)OCOC(=O)C(C)(C)C (centres undefined) ?
2

Quick check: Ratio CC50/IC50 of Nc1nc(Cl)c2ncn(CCOCP(=O)(O)O)c2n1 ?
0.2

Quick check: Ratio CC50/IC50 of Nc1nc(N)c2ncn(CCOCP(=O)(O)O)c2n1 ?
0.1

###

Measured selectivity ratio values are reported for all entries that follow.
- protocol details: Selectivity index, ratio of CC50 for HEL299 cells to EC50 for Camelpox virus CML14 infected in HEL299 cells
- Format: toxicity, cell-based, HEL 299
- condition summary: human, HEL299 cells; read-out: Ratio CC50/IC50

Sample answers from the record:
compound	selectivity ratio
Nc1nc(NCCP(=O)(O)O)c2ncn(CCOCP(=O)(O)O)c2n1	< 0.3
Nc1nc(NCCCC(=O)O)c2ncn(CCOCP(=O)(O)O)c2n1	< 2
Nc1nc(N)c(Br)c(OCCOCP(=O)(O)O)n1	< 0.3
Nc1nc(NCCC(=O)O)c2ncn(CCOCP(=O)(O)O)c2n1	< 2
Nc1cc(OCCOCP(=O)(O)O)nc(N)n1	< 0.3
Nc1ncnc2c1ncn2CCOCP(=O)(O)O	< 1
Nc1nc(NC(Cc2ccccc2)C(=O)O)c2ncn(CCOCP(=O)(O)O)c2n1 (racemic)	< 1

Now, please, on to the next compound.
Quick check: selectivity ratio of Nc1nc(N)c2ncn(CCOCP(=O)(O)O)c2n1 ?
< 1

###

- protocol details: Cytotoxicity against human PHK after 4 days by Z1 Coulter counting analysis
- condition summary: PHK cells
readout label: CC50 at 96 h (µM)
The answer is to be given in µM; state only the numeric part.

chem smiles	measurement
CN(C)c1ncnc2c1ncn2CCOCP(=O)(O)O	1
Nc1ncn(C[C@@H](CO)OCP(=O)(O)O)c(=O)n1	71

Quick check: CC50 at 96 h of Nc1nc(NCCP(=O)(O)O)c2ncn(CCOCP(=O)(O)O)c2n1 ?
59

###

Measured Ratio CC50/IC50 values are reported for all entries that follow.
- protocol details: Selectivity index, ratio of CC50 for human PHK to EC50 for Camelpox virus CML1 infected in human PHK
Lab note: record the figure alone, no unit after it.

Sample answers from the record:
molecule	readout label	measurement
Nc1nc2c(ncn2CCOCP(=O)(O)O)c(=O)[nH]1	Ratio CC50/IC50	0.1
Nc1ncnc(=O)n1C[C@H]1COP(=O)(O)CO1	Ratio CC50/IC50	2
Nc1nc(NCCCC(=O)O)c2ncn(CCOCP(=O)(O)O)c2n1	Ratio CC50/IC50	1
C[C@H](COC1=CC(N)N(O)C(N)=N1)OCP(=O)(O)O (stereo partly specified)	Ratio CC50/IC50	1

Quick check: Ratio CC50/IC50 of C[C@@H](Cn1cnc2c(N)ncnc21)OCP(=O)(O)O ?
1

Quick check: Ratio CC50/IC50 of Nc1nc(N)c2ncn(C[C@@H](CO)OCP(=O)(O)O)c2n1 ?
2

Quick check: Ratio CC50/IC50 of Cc1nc(N)nc2c1ncn2CCOCP(=O)(O)O ?
0.4

Quick check: Ratio CC50/IC50 of CC(C)CC(Nc1nc(N)nc2c1ncn2CCOCP(=O)(O)O)C(=O)O (racemic) ?
0.1

###

Measured Ratio CC50/IC50 values are reported for all entries that follow.
- protocol details: Selectivity index, ratio of CC50 for human PHK to EC50 for Camelpox virus CML1 infected in human PHK

Sample answers from the record:
compound	Ratio CC50/IC50
C[C@@H](O)[C@H](Nc1nc(N)nc2c1ncn2CCOCP(=O)(O)O)C(=O)O	<0.2
Nc1nc(NC(CC(=O)O)C(=O)O)c2ncn(CCOCP(=O)(O)O)c2n1 (racemic)	<0.1
Nc1ccn(C[C@@H](CO)OCP(=O)(O)O)c(=O)n1.O.O	1
CC(O)C(Nc1nc(N)nc2c1ncn2CCOCP(=O)(O)O)C(=O)O (racemic)	0.04
Nc1nc(N(CC(=O)O)CC(=O)O)c2ncn(CCOCP(=O)(O)O)c2n1	1
Nc1nccc2c1ncn2C[C@@H](CO)OCP(=O)(O)O	0.1
Nc1nc(NCS(=O)(=O)O)c2ncn(CCOCP(=O)(O)O)c2n1	0.03
CN(C)c1ncnc2c1ncn2CCOCP(=O)(O)O	0.1

Quick check: Ratio CC50/IC50 of Nc1nc(NCCC(=O)O)c2ncn(CCOCP(=O)(O)O)c2n1 ?
<2

Quick check: Ratio CC50/IC50 of NC1=NC(OC[C@@H]2CP(=O)(O)CO2)=CC(N)N1O (stereo partly drawn) ?
3

Quick check: Ratio CC50/IC50 of C[C@H](O)[C@H](Nc1nc(N)nc2c1ncn2CCOCP(=O)(O)O)C(=O)O ?
<0.1

Quick check: Ratio CC50/IC50 of Nc1nc(NC(CO)C(=O)O)c2ncn(CCOCP(=O)(O)O)c2n1 (racemic) ?
0.03

Quick check: Ratio CC50/IC50 of Nc1nc(NCCS(=O)(=O)O)c2ncn(CCOCP(=O)(O)O)c2n1 ?
<1
